Molecular target: 5-HT1E (Homo sapiens, UniProt P28566)
Sequence (P28566 whole entry): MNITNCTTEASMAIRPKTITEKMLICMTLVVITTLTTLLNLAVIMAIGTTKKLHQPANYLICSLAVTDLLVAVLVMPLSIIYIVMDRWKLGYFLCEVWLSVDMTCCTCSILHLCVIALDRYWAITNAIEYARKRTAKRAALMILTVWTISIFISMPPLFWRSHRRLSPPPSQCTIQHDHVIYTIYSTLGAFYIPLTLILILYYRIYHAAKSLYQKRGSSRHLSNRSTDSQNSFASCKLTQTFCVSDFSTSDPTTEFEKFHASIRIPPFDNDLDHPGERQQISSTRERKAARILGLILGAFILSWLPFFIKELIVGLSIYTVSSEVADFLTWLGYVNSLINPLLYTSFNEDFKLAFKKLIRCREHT
pKi: −log10 of the molar value.
Let's look at some molecules and their measured pKi.
observed_property: pKi

[[record]]
molecule = "C=CCN(CC=C)CCc1c(C)[nH]c2ccc(F)cc12 [5-F-2-Me-DALT, 5-fluoro-2-methyl-N,N-diallyltryptamine]"
value_qualifier = "="
measurement = 5.90

[[record]]
molecule = "C=CCN(CC=C)CCc1c[nH]c2cccc(O)c12 [4-HO-DALT, 4-hydroxy-N,N-diallyltryptamine]"
value_qualifier = "="
measurement = 6.62

[[record]]
molecule = "C=CCN(CC=C)CCc1c[nH]c2c(CC)cccc12 [7-Et-DALT, 7-ethyl-N,N-diallyltryptamine]"
value_qualifier = "<"
measurement = 5.00

[[record]]
molecule = "C=CCN(CC=C)CCc1c(-c2ccccc2)[nH]c2ccccc12 [2-Ph-DALT, 2-phenyl-N,N-diallyltryptamine]"
value_qualifier = "<"
measurement = 5.00

[[record]]
molecule = "C=CCN(CC=C)CCc1c(C)[nH]c2ccc(OC)cc12 [5-MeO-2-Me-DALT, 5-methoxy-2-methyl-N,N-diallyltryptamine]"
value_qualifier = "="
measurement = 5.80

[[record]]
molecule = "C=CCN(CC=C)CCc1c[nH]c2cccc(OC(C)=O)c12 [4-AcO-DALT, 4-acetoxy-N,N-diallyltryptamine]"
value_qualifier = "="
measurement = 6.33


###

Measurement record for 5-HT1B (Homo sapiens, UniProt P28222); quantity recorded: Ki.
observed_property: Ki

[[record]]
compound = "C=CCN(CC=C)CCc1c[nH]c2cccc(OC(C)=O)c12"
measurement = "> 10000 nM"

[[record]]
compound = "C=CCN(CC=C)CCc1c[nH]c2cccc(O)c12 [4-HO-DALT, 4-hydroxy-N,N-diallyltryptamine]"
measurement = "2490 nM"

[[record]]
compound = "C=CCN(CC=C)CCc1c[nH]c2c(CC)cccc12"
measurement = "> 10000 nM"

[[record]]
compound = "C=CCN(CC=C)CCc1c(-c2ccccc2)[nH]c2ccccc12"
measurement = "273 nM"

[[record]]
compound = "C=CCN(CC=C)CCc1c(C)[nH]c2ccc(F)cc12"
measurement = "2010 nM"

[[record]]
compound = "C=CCN(CC=C)CCc1c(C)[nH]c2ccc(OC)cc12"
measurement = "2270 nM"


###

Biological target: D2 (Homo sapiens)
Sequence (P14416 whole entry): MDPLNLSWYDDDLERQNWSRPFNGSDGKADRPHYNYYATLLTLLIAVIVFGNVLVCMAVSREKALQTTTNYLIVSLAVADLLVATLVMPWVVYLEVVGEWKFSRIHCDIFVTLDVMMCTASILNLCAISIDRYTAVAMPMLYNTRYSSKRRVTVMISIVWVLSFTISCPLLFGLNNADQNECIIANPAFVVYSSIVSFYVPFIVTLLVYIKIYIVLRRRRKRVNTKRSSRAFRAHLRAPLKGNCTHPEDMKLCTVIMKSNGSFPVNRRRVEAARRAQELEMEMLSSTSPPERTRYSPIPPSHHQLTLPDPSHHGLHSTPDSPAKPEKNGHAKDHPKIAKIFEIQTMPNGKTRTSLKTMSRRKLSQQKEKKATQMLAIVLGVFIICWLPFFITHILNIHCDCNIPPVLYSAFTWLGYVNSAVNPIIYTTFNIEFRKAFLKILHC
Assay: NIMH PDSP radioligand competition binding, D2
pKi: −log10 of the molar value.
Catalogue of compounds with associated pKi
observed_property: pKi

[[record]]
compound = "C=CCN(CC=C)CCc1c(-c2ccccc2)[nH]c2ccccc12"
assay_system = "D2 (Homo sapiens)"
measurement = 6.41

[[record]]
compound = "C=CCN(CC=C)CCc1c[nH]c2c(CC)cccc12"
assay_system = "D2 (Homo sapiens)"
measurement = "< 5.00"

[[record]]
compound = "C=CCN(CC=C)CCc1c[nH]c2cccc(OC(C)=O)c12"
assay_system = "D2 (Homo sapiens)"
measurement = "< 5.00"

[[record]]
compound = "C=CCN(CC=C)CCc1c(C)[nH]c2ccc(OC)cc12"
assay_system = "D2 (Homo sapiens)"
measurement = "< 5.00"

[[record]]
compound = "C=CCN(CC=C)CCc1c(C)[nH]c2ccc(F)cc12"
assay_system = "D2 (Homo sapiens)"
measurement = 5.35

[[record]]
compound = "C=CCN(CC=C)CCc1c[nH]c2cccc(O)c12 [4-HO-DALT, 4-hydroxy-N,N-diallyltryptamine]"
assay_system = "D2 (Homo sapiens)"
measurement = "< 5.00"

